EXPERIMENT SUMMARY: gradient 5% acetonitrile 3 min, to 50% in 2 min, to 85% in 15 min, held 3 min, 100 µL/min
STUDY CONDITIONS: column: Zorbax Extend-C18 2.1 x 50 mm; eluents: water / acetonitrile, 0.1% formic acid
Parameter RP-LC retention time: see the listing below.
Units required after the number.

Past entries and their recorded results:
# COMPOUND, RP-LC retention time
measured = [
    ("CCOc1ccc(NC(=O)Cc2c(C)nn(-c3nc(-c4ccc(F)cc4)cs3)c2C)cc1", "1200 s"),
    ("O=c1n(Cc2cccc(Cl)c2)nc2ccc(S(=O)(=O)N3CCCC3)cn12", "919 s"),
    ("CCOc1ccc(CCNC(=O)c2cc(S(=O)(=O)N3CCCC3)c(C)n2C)cc1OCC", "951 s"),
]

Ask: Entry `CCc1cccc(NC(=O)N2CCC(c3cc(N)on3)CC2)c1` : reported RP-LC retention time = ?
Result: 751 s

Ask: // lookup RP-LC retention time for `CSc1ccccc1C(=O)N(Cc1ccsc1)CC(F)(F)F`
Result: 987 s

Ask: Entry `CCN1CCCn2cc(S(=O)(=O)N3CCCCCC3)cc2C1=O` has what RP-LC retention time?
Result: 747 s

Ask: Look up RP-LC retention time for this compound: `CCN(CC)CCNC(=O)c1cn(C)nc1S(=O)(=O)N1CCN(c2cccc(Cl)c2)CC1`
Result: 711 s

Ask: I have this compound here, Cc1ccc(N2CC(c3nc4ccccc4n3CC(=O)N(CC(C)C)CC(C)C)CC2=O)cc1 (stereo unspecified) , and I need its recorded RP-LC retention time.
Result: 967 s
